Tested on: HT-29
Procedure Text: Inhibition of cells growth by colorimetric assay (SRB), HT-29
Assay type: cell-based
Condition Description: Homo sapiens, HT-29, 48 h, read-out: LC50 HT-29, HT-29; SRB, 48 hours exposure
Measurement Label: LC50 (concentration for 50% cell killing) (µM)
Numbers only, in µM.

Illustrative cases are given below, each with its answer.
[
  {
    "Compound": "COc1cc2c(cc1O)CCN[C@]21CS[C@@H]2c3c(OC(C)=O)c(C)c4c(c3[C@H](COC1=O)N1C2[C@H]2c3c(cc(C)c(OC)c3OC)C[C@@H]([C@@H]1C#N)N2C)OCO4 (stereo partly drawn)",
    "System Under Test": "HT-29",
    "Observed Measurement": 12.7
  },
  {
    "Compound": "COc1cc2c(cc1OC(=O)CCc1ccccc1)CCN[C@]21CS[C@@H]2c3c(OC(C)=O)c(C)c4c(c3[C@H](COC1=O)N1C2[C@H]2c3c(cc(C)c(OC)c3O)C[C@@H]([C@@H]1O)N2C)OCO4 (stereo partly drawn)",
    "System Under Test": "HT-29",
    "Observed Measurement": 0.0112
  },
  {
    "Compound": "COc1cc2c(cc1OC)[C@@]1(CS[C@@H]3c4c(OC(C)=O)c(C)c5c(c4[C@H](COC1=O)N1C3[C@H]3c4c(cc(C)c(OC)c4O)C[C@@H]([C@@H]1O)N3C)OCO5)NCC2 (stereo partly drawn)",
    "System Under Test": "HT-29",
    "Observed Measurement": 12.9
  },
  {
    "Compound": "COc1cc2c(cc1O)CCN[C@]21CS[C@@H]2c3c(OC(C)=O)c(C)c4c(c3[C@H](COC1=O)N1C2[C@H]2c3c(cc(C)c(OC)c3OC(C)C)C[C@@H]([C@@H]1C#N)N2C)OCO4 (stereo partly drawn)",
    "System Under Test": "HT-29",
    "Observed Measurement": 12.3
  },
  {
    "Compound": "C=COC(=O)Oc1cc2c(cc1OC)[C@@]1(CS[C@@H]3c4c(OC(C)=O)c(C)c5c(c4[C@H](COC1=O)N1C3[C@H]3c4c(cc(C)c(OC)c4O)C[C@@H]([C@@H]1C#N)N3C)OCO5)N(C(=O)OC=C)CC2 (stereo partly drawn)",
    "System Under Test": "HT-29",
    "Observed Measurement": 0.00988
  },
  {
    "Compound": "COc1cc2c(cc1OC(=O)C(F)(F)C(F)(F)C(F)(F)F)CCN[C@]21CS[C@@H]2c3c(OC(C)=O)c(C)c4c(c3[C@H](COC1=O)N1C2[C@H]2c3c(cc(C)c(OC)c3O)C[C@@H]([C@@H]1O)N2C)OCO4 (stereo partly drawn)",
    "System Under Test": "HT-29",
    "Observed Measurement": 10.4
  },
  {
    "Compound": "COc1cc2c(cc1OC(=O)OC(C)(C)C)CCN[C@]21CS[C@@H]2c3c(OC(C)=O)c(C)c4c(c3[C@H](COC1=O)N1C2[C@H]2c3c(cc(C)c(OC)c3OC(C)C)C[C@@H]([C@@H]1C#N)N2C)OCO4 (stereo partly drawn)",
    "System Under Test": "HT-29",
    "Observed Measurement": 11
  },
  {
    "Compound": "COc1cc2c(cc1OC(=O)C(F)(F)C(F)(F)C(F)(F)F)CCN[C@]21CS[C@@H]2c3c(OC(C)=O)c(C)c4c(c3[C@H](COC1=O)N1C2[C@H]2c3c(cc(C)c(OC)c3O)C[C@@H]([C@@H]1C#N)N2C)OCO4 (stereo partly drawn)",
    "System Under Test": "HT-29",
    "Observed Measurement": 0.0108
  }
]

Can you share its LC50 (concentration for 50% cell killing)? I mean this compound: C=COC(=O)Oc1cc2c(cc1OC)[C@@]1(CS[C@@H]3c4c(OC(C)=O)c(C)c5c(c4[C@H](COC1=O)N1C3[C@H]3c4c(cc(C)c(OC)c4OC(=O)OC=C)C[C@@H]([C@@H]1C#N)N3C)OCO5)NCC2 (stereo partly drawn)
11
